Assay: Aqueous solubility of the compound
Assay type: physicochemical
Conditions: buffer
Measure: solubility (µM)

Query block: I am curious: what solubility value has been reported for `O=C(NC1CC1)c1cc2c(s1)-c1ccccc1N(C(=O)c1ccc(NC(=O)c3cccnc3N3CCC4(CC3)COC4)cc1)CC2` ?
Result block: 2

[A] O=C(NC1CC1)c1cc2c(s1)-c1ccccc1N(C(=O)[C@H]1C[C@H](NC(=O)c3cccnc3N3CCCC3)C1)CC2
[B] CN1CC2(CCN(c3ncccc3C(=O)Nc3ccc(C(=O)N4CCc5cc(C(=O)NC6CC6)sc5-c5ccccc54)cc3)CC2)C1
Query block: Response body: label of entry with the larger solubility; valid values A , B . API: response body contains the label of the selected item.
Result block: B
(B: 55 µM, A: 3 µM)

meta.source: ChEMBL document CHEMBL3091401
